Each entry below carries its recorded IC50.
- tgt: Recombinant human factor B catalytic domain (Homo sapiens)
- Sequence (P00751 470-764): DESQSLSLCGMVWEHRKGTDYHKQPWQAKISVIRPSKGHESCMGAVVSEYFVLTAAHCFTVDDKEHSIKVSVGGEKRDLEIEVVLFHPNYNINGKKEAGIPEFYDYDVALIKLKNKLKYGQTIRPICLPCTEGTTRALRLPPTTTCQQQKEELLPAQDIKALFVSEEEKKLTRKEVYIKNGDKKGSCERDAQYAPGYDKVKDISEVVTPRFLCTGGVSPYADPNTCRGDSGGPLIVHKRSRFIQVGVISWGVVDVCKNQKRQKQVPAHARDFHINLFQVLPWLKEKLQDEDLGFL
- test-description: TR-FRET factor B binding assay

COc1cc(C)c2[nH]ccc2c1CN1CCC2(C[C@H]1c1ccc(C(=O)O)cc1C)CC(F)(F)C2; < 2 nM
Cc1cc(C2CC2)c(CN2CCC3(C[C@H]2c2ccc(C(=O)O)cc2)CC(F)(F)C3)c2cc[nH]c12; < 2 nM

Moving on to the next compound.
INPUT: // returns reported IC50 for input COc1cc(C)c2[nH]ccc2c1CN1CCC2(C[C@H]1c1ccc(C(=O)O)cc1C(F)F)CC(F)(F)C2
OUTPUT: < 2 nM

----------
- test-description: Pharmacokinetic study in rat eyes
- Assay type: in vivo, brown Norway rats
- assay-conditions: Brown Norway, 2 mg/kg, 2 mpk PO, retina, read-out: Retina AUC0-last
Each entry below carries its recorded AUC(0-t).
Return type: number; implicit unit µM·h.

CCO[C@H]1CCN(Cc2c(OC)cc(C)c3[nH]ccc23)[C@H](c2ccc(C(=O)O)cc2)C1 [Iptacopan, reference compound]; 0.141

INPUT: // returns reported AUC(0-t) for input COc1cc(C)c2[nH]ccc2c1CN1CCC2(C[C@H]1c1ccc(C(=O)O)cc1C)CC(F)(F)C2 [Example 3]
OUTPUT: 0.796

----------
Each entry below carries its recorded pKd.
- tgt: Recombinant human factor B catalytic domain (Homo sapiens)
- test-description: Target residence time of factor B inhibitors by surface plasmon resonance (SPR)
pKd is defined as minus the log10 of a concentration measured in mol/L.

// known answers, use as guide
Cc1cc(C2CC2)c(CN2CCC3(C[C@H]2c2ccc(C(=O)O)cc2)CC(F)(F)C3)c2cc[nH]c12 [Example 2]; 9.42
COc1cc(C)c2[nH]ccc2c1CN1CCC2(C[C@H]1c1ccc(C(=O)O)cc1C(F)F)CC(F)(F)C2 [Example 1]; 9.11

Moving on to the next compound.
INPUT: Hello, I am looking for reported pKd with Recombinant human factor B catalytic domain (Homo sapiens) for COc1cc(C)c2[nH]ccc2c1CN1CCC2(C[C@H]1c1ccc(C(=O)O)cc1C)CC(F)(F)C2 [Example 3] . Could you help?
OUTPUT: 9.77

----------
Each entry below carries its recorded half-life.
- test-description: Pharmacokinetic study in rat eyes
- Type: in vivo, brown Norway rats
- assay-conditions: Brown Norway, in vivo, 2 mg/kg, 2 mpk PO
Return type: number; implicit unit h.

COc1cc(C)c2[nH]ccc2c1CN1CCC2(C[C@H]1c1ccc(C(=O)O)cc1C)CC(F)(F)C2; 22.2

Moving on to the next molecule.
INPUT: // returns reported half-life for input CCO[C@H]1CCN(Cc2c(OC)cc(C)c3[nH]ccc23)[C@H](c2ccc(C(=O)O)cc2)C1 [Iptacopan, reference compound]
OUTPUT: 5.3
